- study.target: Prostaglandin G/H synthase 1 (Ovis aries) (UniProt P05979)
- Sequence (P05979 whole entry): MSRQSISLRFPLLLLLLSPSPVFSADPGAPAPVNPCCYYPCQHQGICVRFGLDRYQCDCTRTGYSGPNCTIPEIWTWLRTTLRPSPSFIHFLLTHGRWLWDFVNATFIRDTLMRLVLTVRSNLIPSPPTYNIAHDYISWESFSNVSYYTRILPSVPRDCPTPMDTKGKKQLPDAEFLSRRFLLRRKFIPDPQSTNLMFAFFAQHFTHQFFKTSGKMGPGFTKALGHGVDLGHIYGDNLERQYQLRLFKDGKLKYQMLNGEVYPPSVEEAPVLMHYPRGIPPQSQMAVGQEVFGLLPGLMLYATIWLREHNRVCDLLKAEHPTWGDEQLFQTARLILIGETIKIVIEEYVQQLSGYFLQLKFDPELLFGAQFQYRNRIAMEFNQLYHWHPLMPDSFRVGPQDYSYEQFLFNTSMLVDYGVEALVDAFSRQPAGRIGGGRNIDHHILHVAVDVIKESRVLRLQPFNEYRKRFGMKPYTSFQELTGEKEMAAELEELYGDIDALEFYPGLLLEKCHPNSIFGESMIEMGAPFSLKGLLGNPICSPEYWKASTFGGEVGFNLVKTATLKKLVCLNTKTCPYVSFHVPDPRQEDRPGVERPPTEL
- method.description: Inhibition of sheep COX-1 at 20 uM by cayman colorimetric assay
endpoint: inhibition (%)
Report the figure in % without appending any unit label.

Use these answered entries as a reference point.
INSERT INTO assay_data (structure, measured_number) VALUES
  ('COc1ccc(-c2nc3cc(Cl)ccc3c(=O)n2-c2ccc(S(C)(=O)=O)cc2)cc1', 12),
  ('CS(=O)(=O)c1ccc(-n2c(-c3ccccc3)nc3ccc(Br)cc3c2=O)cc1', 4);

// field: inhibition; key: COc1ccc(-c2nc3cc(F)ccc3c(=O)n2-c2ccc(S(C)(=O)=O)cc2)cc1 ; value = 29

For reference, reported inhibition for COc1ccc(-c2nc3ccccc3c(=O)n2-c2ccc(SC)cc2)cc1 stands at 30

Form: compound = CS(=O)(=O)c1ccc(-n2c(-c3ccccc3)nc3cc(Cl)ccc3c2=O)cc1 ; inhibition = 0

inhibition recorded for this compound, CSc1ccc(-n2c(-c3ccccc3)nc3ccccc3c2=O)cc1 , is 12

Just so you know, measured inhibition for COc1ccc(-c2nc3ccccc3c(=O)n2-c2ccc(S(C)(=O)=O)cc2)cc1 came out at 24

GET /value?item= COc1ccc(-c2nc3ccc(Br)cc3c(=O)n2-c2ccc(S(C)(=O)=O)cc2)cc1 &field=inhibition returns 7

###

In this section we review reported inhibition in vivo at 50 mg/kg values for a set of compounds.
- Tested on: Rattus norvegicus
- method.description: Antiinflammatory activity in rat assessed as inhibition of carrageenan-induced paw edema at 50 mg/kg, po measured after 90 min by Plethysmograph
- Format: functional
- applied.conditions: 1.5 h
# number only, unit % dropped from output

INSERT INTO measurements (structure, endpoint, measured_number) VALUES
  ('CS(=O)(=O)c1ccc(-n2c(-c3ccccc3)nc3ccccc3c2=O)cc1', 'inhibition in vivo at 50 mg/kg', 30),
  ('CSc1ccc(-n2c(-c3ccccc3)nc3cc(F)ccc3c2=O)cc1', 'inhibition in vivo at 50 mg/kg', 29);

Query COc1ccc(-c2nc3cc(F)ccc3c(=O)n2-c2ccc(SC)cc2)cc1 yields inhibition in vivo at 50 mg/kg of 31

The compound listed as CSc1ccc(-n2c(-c3ccccc3)nc3ccc(Br)cc3c2=O)cc1 shows inhibition in vivo at 50 mg/kg equal to 30

Entry CS(=O)(=O)c1ccc(-n2c(-c3ccccc3)nc3cc(F)ccc3c2=O)cc1 ; inhibition in vivo at 50 mg/kg = 30

Please fill in: inhibition in vivo at 50 mg/kg reported for COc1ccc(-c2nc3ccccc3c(=O)n2-c2ccc(SC)cc2)cc1 = 30

inhibition in vivo at 50 mg/kg recorded for this compound, CS(=O)(=O)c1ccc(-n2c(-c3ccccc3)nc3ccc(Br)cc3c2=O)cc1 , is 38

Per the records, this compound ( COc1ccc(-c2nc3ccccc3c(=O)n2-c2ccc(S(C)(=O)=O)cc2)cc1 ) has inhibition in vivo at 50 mg/kg equal to 35

Documented inhibition in vivo at 50 mg/kg of CS(=O)(=O)c1ccc(-n2c(-c3ccccc3)nc3cc(Cl)ccc3c2=O)cc1 : 32
